Hey, just so you know, these numbers are from PubChem BioAssay (NCATS).

System: MKL-2
PROCEDURE TEXT: qHTS assay to identify novel small-molecules to repurpose for Merkel cell carcinoma treatment (AID 1296009); also: nearly all actives have a fitted effect of over 60% in size
CONDITION: MCC and control cell lines, CellTiter-Glo viability, 72 h; series mostly up to 46 µM
Records with an inconclusive call do not appear. Calls of active or inactive are those of the source. Calls follow the shape of the dose curve; as a rule, active = well fitted inhibition curve with a large enough effect; inconclusive = small, poorly fitted or top-dose-only effect; inactive = flat fitted curve, though single readings scatter.
Your answer must be one of the following: Y = active, N = inactive

CCC(=O)O[C@H]1CC[C@H]2[C@@H]3CCC4=CC(=O)CC[C@]4(C)[C@H]3CC[C@]12C | N
CNC(C)Cc1ccccc1OC (stereo unspecified) | N
NC(=O)CN1CCCC1=O | N
O=c1n(Cl)c(=O)n(Cl)c(=O)n1Cl | N
Nc1ccccc1C(=O)OCC(O)CO (stereo unspecified) | N
CCOP(=S)(OCC)O/N=C(\C#N)c1ccccc1 | N
COc1ccc(C(=O)N2CCCC2=O)cc1 | N
CCc1cc(OC)c(C[C@H](C)N)cc1OC | N

Exam item: Call for entry C[C@@H]1CN(C2CCC(C#N)(c3ccc(F)cc3)CC2)CC[C@]1(C(=O)O)c1ccccc1 (stereo partly specified) :
Marked response: N

Exam item: Call for entry COCC(=O)N(c1c(C)cccc1C)C(C)C(=O)OC (stereo unspecified) :
Marked response: N

Exam item: Call for entry `CCOC(=O)c1ncn2c1CN(C)C(=O)c1c(I)cccc1-2` :
Marked response: N

Exam item: Call for entry `Cc1ccc(N=CN(C)C=Nc2ccc(C)cc2C)c(C)c1` :
Marked response: N

Exam item: Call for entry `CCCN(CCC)CCc1c[nH]c2ccccc12` :
Marked response: N

Exam item: Call for entry `CCOC(C(=O)OCCN(C)C)(c1ccccc1)c1ccccc1` :
Marked response: N

Exam item: Call for entry `CC(C)(C)OC(=O)c1ncn2c1[C@@H]1CCCN1C(=O)c1c(Br)cccc1-2` :
Marked response: N

Exam item: Call for entry `CCN(Cc1ccc(Cl)nc1)/C(=C/[N+](=O)[O-])NC` :
Marked response: N

----------
PROCEDURE TEXT: qHTS of pediatric cancer cell lines to identify multiple opportunities for drug repurposing: Primary screen for Rh41 cells (AID 1347108); also: nearly all actives have a fitted effect of over 70% in size
CONDITION: Rh41 rhabdomyosarcoma viability, CellTiter-Glo luminescence, 48 h; series mostly up to 46 µM
Records with an inconclusive call do not appear. Calls of active or inactive are those of the source. Calls come from the whole dose curve; as a rule, active = well fitted cell-killing curve with a large enough effect; inconclusive = small, poorly fitted or top-dose-only effect; inactive = no such curve, though single readings can be large or run the other way.
Your answer must be one of the following: TRUE = active, FALSE = inactive

Example entries and their recorded answers appear below.
CC[C@H](O)C(C[C@H](C)N(C)C)(c1ccccc1)c1ccccc1 | TRUE
CN(C)CCc1c[nH]c2cccc(O)c12 | FALSE
C[N+]1(CCC(C(N)=O)(c2ccccc2)c2ccccc2)CCCCC1 | FALSE
CC(C)=C[C@@H]1[C@@H](C(=O)OCc2coc(Cc3ccccc3)c2)C1(C)C | FALSE
CCOC(=O)NC(O)C(Cl)(Cl)Cl (stereo unspecified) | FALSE

With those in mind, consider the next compound.
Exam item: Call for entry `CCOC(=O)C1(c2ccccc2)CCN(CCc2ccc(N)cc2)CC1` :
Marked response: FALSE

----------
PROCEDURE TEXT: Cell Viability - LYMP2-012 (AID 982);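 also: cellular ATP by luciferase luminescence where a drop means cytotoxicity; cells exposed to compound for one day before reading; nearly all actives have a fitted effect of over 55% in size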; also: potency is read from the fitted curve at half-maximal effect
CONDITION: LYMP2-012 lymphoblastoid cell viability qHTS; series mostly up to 92.2 µM
Inconclusive results are not listed. Calls of active or inactive are those of the source. Calls come from the whole dose curve; as a rule, active = well fitted cell-killing curve with a large enough effect; inconclusive = small, poorly fitted or top-dose-only effect; inactive = flat fitted curve, though single readings scatter.
RECORDED ENDPOINT: Potency

CN(C)C(=S)SSC(=S)N(C)C | 0.199 µM (active)
Oc1ccc(Cl)cc1Sc1cc(Cl)ccc1O | 31.6 µM (active)
CC[n+]1c(-c2ccccc2)c2cc(N)ccc2c2ccc(N)cc21 | 7.94 µM (active)
O=C(CCl)c1ccc(Cl)cc1Cl | 3.16 µM (active)
CCCCCCCCCCCC[N+](C)(C)CCOc1ccccc1 | 39.8 µM (active)
COP(=O)(OC)OC=C(Cl)Cl | inactive

Shift focus to the following entry.
Value of Potency reported for the compound `CNC(=O)Oc1cccc2ccccc12` is inactive
